Sourced from patent US20230285582A1

Target: T1, cynomolgus monkey (Macaca fascicularis) TfR1 (cynomolgus monkey (Macaca fascicularis), UniProt Q5RDH6 89-760 (Pongo abelii entry), limits assumed)
T1 construct: also called cTfR1; cyTfR1
T1 chain: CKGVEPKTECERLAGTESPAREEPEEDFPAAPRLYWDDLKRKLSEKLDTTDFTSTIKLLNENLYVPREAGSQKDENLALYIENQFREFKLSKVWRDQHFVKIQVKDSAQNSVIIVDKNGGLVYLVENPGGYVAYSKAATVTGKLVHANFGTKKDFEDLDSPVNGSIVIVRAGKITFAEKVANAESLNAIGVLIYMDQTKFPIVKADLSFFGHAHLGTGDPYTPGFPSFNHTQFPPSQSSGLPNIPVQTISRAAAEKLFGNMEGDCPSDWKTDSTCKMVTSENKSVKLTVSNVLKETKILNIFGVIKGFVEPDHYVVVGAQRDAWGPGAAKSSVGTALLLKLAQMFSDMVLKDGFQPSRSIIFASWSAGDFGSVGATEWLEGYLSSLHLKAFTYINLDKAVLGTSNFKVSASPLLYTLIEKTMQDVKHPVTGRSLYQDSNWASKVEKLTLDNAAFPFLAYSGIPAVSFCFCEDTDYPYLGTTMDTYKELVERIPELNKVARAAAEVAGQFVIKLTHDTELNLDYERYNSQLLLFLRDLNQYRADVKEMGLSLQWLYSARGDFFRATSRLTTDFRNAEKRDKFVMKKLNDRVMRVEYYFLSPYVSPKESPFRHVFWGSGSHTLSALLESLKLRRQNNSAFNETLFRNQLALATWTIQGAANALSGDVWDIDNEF
Assay: ELISA, d0
pEC50: −log10 of the molar value.

>  <binder>
humanized anti-TfR Fab 3A4 VH3/Vk4 (Fab, V domains shown) VH: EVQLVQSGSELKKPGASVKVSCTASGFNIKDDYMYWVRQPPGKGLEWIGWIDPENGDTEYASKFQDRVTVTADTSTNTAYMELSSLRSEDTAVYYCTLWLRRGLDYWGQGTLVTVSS VL: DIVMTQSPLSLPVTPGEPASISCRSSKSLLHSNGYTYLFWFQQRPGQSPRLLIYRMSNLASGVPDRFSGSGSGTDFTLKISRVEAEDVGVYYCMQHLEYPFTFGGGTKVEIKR

>  <pEC50>
6.91

$$$$
>  <binder>
humanized anti-TfR Fab 3A4 VH3 (N54T)/Vk4 (Fab, V domains shown) VH: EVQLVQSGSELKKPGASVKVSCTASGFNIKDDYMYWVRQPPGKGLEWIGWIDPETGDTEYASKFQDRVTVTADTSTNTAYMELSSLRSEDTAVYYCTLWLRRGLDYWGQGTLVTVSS VL: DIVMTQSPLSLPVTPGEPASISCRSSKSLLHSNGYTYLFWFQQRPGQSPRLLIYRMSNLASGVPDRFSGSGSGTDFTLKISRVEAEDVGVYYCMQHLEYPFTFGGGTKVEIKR

>  <pEC50>
6.81

$$$$
